- Tested on: Setaria viridis (SETVI)
- Experiment notes: Post-emergence herbicidal action, greenhouse pot trial
- Format: in vivo
- Measurement context: Setaria viridis, 504 h, 320 g/ha, visual rating after about 3 weeks, read-out: Post-emergence effect at 320 g/ha against SETVI in %
Measured metric: pest or weed control at 320 g/ha
Don't forget the unit after the value.

Input: Look up pest or weed control at 320 g/ha: CCOC(=O)C(Oc1nn(-c2ncccc2F)c(-c2ccc(F)nc2)c1Br)SC (stereo not drawn) [Example I-13]
Output: 90%

Input: What do you have for CSC(Oc1nn(-c2ncccc2F)c(-c2ccc(F)nc2)c1Cl)C(=O)O (stereo not drawn) ?
Output: 80%

Input: What do you have for CCOC(=O)C(Oc1nn(-c2ncccc2F)c(-c2ccc(F)cc2F)c1Br)SC (stereo not drawn) ?
Output: 80%

Input: What do you have for CSC(Oc1nn(-c2ccccc2F)c(-c2ccc(F)nc2)c1I)C(=O)O (stereo not drawn) ?
Output: 90%

Input: What do you have for CSC(Oc1nn(-c2ncccc2F)c(-c2cncc(F)c2)c1C1CC1)C(=O)O (stereo not drawn) ?
Output: 80%

Input: What do you have for CSC(Oc1nn(-c2ncccc2F)c(-c2ccc(F)nc2)c1Br)C(=O)O (single isomer, unassigned) [Example I-24] ?
Output: 90%

Input: What do you have for CCOC(=O)C(Oc1nn(-c2ccccc2F)c(-c2ccc(F)nc2)c1Br)SC (stereo not drawn) [Example I-01] ?
Output: 80%

Input: What do you have for CCOC(=O)C(Oc1nn(-c2ncccc2F)c(-c2cncc(F)c2)c1Br)SC (stereo not drawn) ?
Output: 90%

Input: What do you have for COC(=O)C(Oc1nn(-c2ncccc2F)c(-c2ccc(F)nc2)c1Br)SC (single isomer, unassigned) ?
Output: 80%
